B1: glmS ribozyme (parent)
chain: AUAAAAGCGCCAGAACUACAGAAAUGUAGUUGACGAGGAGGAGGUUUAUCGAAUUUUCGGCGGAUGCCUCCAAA

Variants of: B1
Experiment: kcat; higher = faster cleavage; RNA array
Conditions: with glucosamine-6-phosphate
Variants at the floor of the assay were thinned out.
Kindly state kcat for each of the entries shown.
Report the value in s⁻¹ with no unit label.

Query A39U A42G yields kcat of 0.0208

Query A39G A53G yields kcat of 0.0916

Query C16U A33U yields kcat of 0.000109

Query A12G A42U yields kcat of 4.92e-05

Query A53G U57A yields kcat of 0.000309

Query G35C C50G yields kcat of 0.000276

Query C67A C70U yields kcat of 0.00153

Query A52U C71G yields kcat of 9.41e-05

Query C67G C71U yields kcat of 2.93e-05

Query A14U U65A yields kcat of 0.0015

Query U57G C58G yields kcat of 3.94e-05

Query G66A C68G yields kcat of 6.98e-05

Query A33G C67G yields kcat of 1.67e-05

Query C50A C68U yields kcat of 1.77e-05

Query U69A C71A yields kcat of 2.44e-05

Query A14C G44U yields kcat of 4.6e-05

Query C10A C70U yields kcat of 2.11e-05

Query A12C C58A yields kcat of 0.000734

Query C11A U31A yields kcat of 0.00019

Query A15G A64U yields kcat of 0.000233

Query C50U U54A C70U yields kcat of 3.48e-05

Query A12G U45A yields kcat of 0.00242

Query U45G C68U yields kcat of 0.00118

Query G37A G40A yields kcat of 0.000755

Query A12C U57C yields kcat of 0.000312

Query G13A U45G yields kcat of 8.96e-05

Query A12C U45C yields kcat of 0.00344

Query A14C C68A yields kcat of 2.76e-05

Query U31A G41A yields kcat of 0.000876
